Hello, the source for this data is the NIST ThermoML archive (doi:10.1021/acs.jced.7b00944), in case you need it.

Conditions: 298.2 K; 101.33 kPa; Liquid; Falling or rolling sphere viscometry

compound: OCC(O)CO
units_symbol: mPa·s
viscosity: 873.6
--
compound: C=C(C)[C@H]1CC=C(C)CC1 [(R)-1-methyl-4-(1-methylethenyl)cyclohexene]
units_symbol: mPa·s
viscosity: 0.972
--
compound: C=CC(C)(O)CCC=C(C)C (centres undefined)
units_symbol: mPa·s
viscosity: 4.238
--
compound: CCO
units_symbol: mPa·s
viscosity: 1.04

----------
Conditions: 298.2 K; 101.33 kPa; Liquid; Vibrating tube method

compound: OCC(O)CO
units_symbol: kg/m3
mass density: 1257.7
--
compound: C=C(C)[C@H]1CC=C(C)CC1 [(R)-1-methyl-4-(1-methylethenyl)cyclohexene]
units_symbol: kg/m3
mass density: 840.73
--
compound: CCO
units_symbol: kg/m3
mass density: 786.1
--
compound: C=CC(C)(O)CCC=C(C)C (centres undefined)
units_symbol: kg/m3
mass density: 856.25
